# credit: PubChem BioAssay (NCI)

assay protocol: NCI Yeast Anticancer Drug Screen. Data for the mec2-1 strain (AID 157)
conditions used: S. cerevisiae mec2-1 strain, at 5.0 µM (retest, dose inferred, filed as 0.5), hits give high values
About 79,000 compounds went through this panel and 15% of them were active in at least one assay; those are over-represented in the sample as a whole.
Here the recorded growth inhibition is given for each entry.
Dear colleague, please return just the value in %, with no unit written.

Below, 8 compounds whose answers are already recorded.
compound | growth inhibition, %
c1cc2c3c(cccc3c1)-c1cnccc1-2 | 36
CCN1CCC(O)(/C=C/c2ccc(C)cc2)C(C(=O)/C=C/c2ccc(C)cc2)C1 (stereo unspecified) | 15
c1ccc(CSC(SCc2ccccc2)(c2ccccc2)c2ccccc2)cc1 | 13
CN1C(c2ccccc2)CC(=NO)CC1c1ccccc1 (stereo unspecified) | 1
Cn1c2ccccc2c(=O)c2ccccc21 | 23
COc1ccc(C2SC(N)=Nc3c2c(C)nn3C(=O)c2ccc(Cl)cc2)cc1OC (stereo unspecified) | -10
COC(=O)C1c2cc3c(cc2C(OC2OC(C)C(OC)C(C)(OC)C2OC)CC1(C)O)C(=O)c1c(O)cc2c(c1C3=O)OC1OC2(C)C(O)C([N+](C)(C)[O-])C1O (stereo unspecified) | 3
CCCCCCCCCCCCc1ccc(S(=O)(=O)O)cc1.[Cu+2] | 14

Exercise: growth inhibition for "O=C1C(=Cc2c[nH]c3ccccc23)C(=O)c2ccccc21" ?
Key: -24

Exercise: Can you check CC12CCCCC1C/C(=N/NC(N)=O)CC2 (stereo unspecified) next?
Key: -52

Exercise: Another compound to check: "C=CCNC(=O)c1ccccc1SC(C)=O"
Key: 33

----------
assay protocol: NCI Yeast Anticancer Drug Screen. Data for the cln2 rad14 strain (AID 165);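 note: 0% = growth equal to vehicle treated cultures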
conditions used: S. cerevisiae cln2 rad14 strain, at 50.0 µM
About 79,000 compounds went through this panel and 15% of them were active in at least one assay; those are over-represented in the sample as a whole. Active and inactive are the calls of the source. Rule as the data show it: active = growth inhibition above about 70%; inactive = the rest.
Outcome field: choose from class 1 (active), class 0 (inactive)

// below: answered compounds
compound | class name
NC(=O)NC(=O)C(Cc1ccc(Cl)cc1)c1ccccc1 (configuration not stated) | class 0
Nc1nc(N)c2c(Cl)c(CNc3ccc(Cl)c(Cl)c3)ccc2n1 | class 1
O=C(COc1ccc(Cl)cc1Cl)Nc1cccc(C(F)(F)F)c1 | class 0
Fc1ccc(NC(=S)SCc2ccc3c(c2)OCO3)cc1 | class 1
CC(NC(=O)/C(C#N)=C/c1ccc2[nH]ccc2c1)c1ccccc1 (configuration not stated) | class 1
Clc1nc(Cl)c(Cl)c(Cl)n1 | class 0

Exercise: Kindly provide the recorded test outcome for the following compound: "CCCCCCCc1c(Cl)nc(Cl)nc1Cl"
Key: class 0

Exercise: Please give the result for "c1ccc2nc3c(ccc4ccccc43)cc2c1" too.
Key: class 0

Exercise: Input "CSc1ccc(N2C(=O)CSC2=S)cc1Cl"
Key: class 0

Exercise: Follow-up item: "CCOc1ccc(N/N=C(\CCC(=O)O)C(=O)O)cc1"
Key: class 1

Exercise: What do we get for O=C1OC(c2ccccc2)C(c2ccccc2)=C1c1ccccc1 (configuration not stated) ?
Key: class 0

Exercise: Now this one: "C[C@@H](O)[C@H]1CC[C@H]2[C@@H]3CCC4=C/C(=N/O)CC[C@]4(C)[C@H]3CC[C@]12C"
Key: class 0

----------
assay protocol: NCI Yeast Anticancer Drug Screen. Data for the bub3 strain (AID 167)
conditions used: S. cerevisiae bub3 mutant strain, at 5.0 µM (retest, dose inferred, filed as 0.5), hits give high values
Compounds without any hit were thinned out: in the full panel of roughly 79,000, 15% have a hit.
endpoint: growth inhibition (%)
Write it as a number; the unit % goes unstated.

Worked cases, growth inhibition given:
chemical structure | growth inhibition (%)
O=C(/C=C/c1ccccn1)c1ccccc1 | -5
CN(C)/C=C1\CCc2ccc([N+](=O)[O-])cc2C1=O | 26
Clc1nc2nc(Cl)c(Cl)n2nc1Cl | -5
COc1cc2c(c3c1/c(=N/N(C)C)c1ccccc1n3C)C=CC(C)(C)O2 | 38
CC1=C(C(=O)Nc2c(C)cccc2C)C(c2ccc3c(c2)OCO3)C(C(=O)Nc2c(C)cccc2C)=C(C)N1 | 6

Exercise: Returns the measured growth inhibition for the input compound. Input: "C=CCCC(=O)O"
Key: 4

----------
assay protocol: NCI Yeast Anticancer Drug Screen. Data for the mlh1 rad18 strain (AID 175)
conditions used: S. cerevisiae mlh1 rad18 strain growth inhibition; at 50.0 µM (retest, dose inferred, filed as 5.0)
The panel holds about 79,000 compounds, 15% with a hit somewhere; the sample as a whole holds those more often. Activity calls are given as the source filed them. Rule as the data show it: active = growth inhibition above about 70%; inactive = the rest.
Tick one outcome: Y = active, N = inactive

compound | class name
c1ccc2nc3c(ccc4ccccc43)cc2c1 | N
OC(CF)(c1ccc(Cl)cc1)c1ccc(Cl)cc1 | Y
OCC1OC(n2cnc3c(=S)nc[nH]c32)C(O)C1O (stereo not drawn) | N
CCCCCCCc1c(Cl)nc(Cl)nc1Cl | Y

Attention now shifts to the item below.
Exercise: Query: recorded result category for "NNc1nc2ccccc2s1" in this test
Key: N

----------
assay protocol: NCI Yeast Anticancer Drug Screen. Data for the bub3 strain (AID 167)
conditions used: S. cerevisiae bub3 mutant strain, at 50.0 µM, hits give high values
This is part of a sample that, as a whole, favours compounds with a hit. Of some 79,000 tested, about 15% had one in any assay.
Listed molecules paired with reported growth inhibition
I only need the number, in %, no unit after it.

molecule | growth inhibition (%)
COC(O)C(=O)c1c2c(cc3c1CCC3)CCCC2 (stereo unspecified) | 90.5
CCO/C(=C\C=O)C1CCC2C3CC=C4CC(OC(C)=O)CCC4(C)C3CCC12C (stereo unspecified) | 23.4
CC(NC(=O)/C(C#N)=C/c1ccc2[nH]ccc2c1)c1ccccc1 (stereo unspecified) | 86.2
CCCCCCCCCCCCCCCC[N+](C)(C)Cc1cnc[nH]1 | 91
O=[N+]([O-])c1c(Cl)nc2ccccn12 | -2.05
O=C(CCC(=O)OCCOc1ccccc1)OCCOc1ccccc1 | -4
CCOC(=O)Nc1c(C)cc(C)c(Br)c1C | 98.6
Cc1cc2c(C(C)C)c(O)c(O)c(C=Nc3ccccc3S)c2c(O)c1-c1c(C)cc2c(C(C)C)c(O)c(O)c(C=Nc3ccccc3S)c2c1O | 39.5
CC(C)CCC[C@@H](C)[C@H]1CC[C@H]2[C@@H]3CC=C4N5CCCN=C5CC[C@]4(C)[C@H]3CC[C@]12C | 98.2
Cc1cc([N+](=O)[O-])c(C)c2c1[nH]c1ccc(O)cc12 | 88.8

Exercise: Fill in: growth inhibition of CCCCCCCCCCS(=O)CC(CO)NC(=O)/C=C/c1c(C)[nH]c(=O)[nH]c1=O (stereo unspecified) is ___
Key: 88.3

Exercise: What would you report for "O=S(c1cc(Cl)cc(Cl)c1O)c1cc(Cl)cc(Cl)c1O" ?
Key: 99.5

Exercise: COc1ccc(C2c3cc4c(cc3OC(NNC(N)=O)C2C)OCO4)cc1 (stereo unspecified) , same question.
Key: 85.8

Exercise: Entry "Clc1c(C(Cl)(Cl)Cl)nsc1N1CCCCC1" please
Key: 51.4

Exercise: Please answer likewise for "Cc1ccc(C(C)C)c2c1CN(CCN1COc3c(C(C)C)ccc(C)c3C1)CO2"
Key: -2.95

Exercise: Also, CCCCCCCCCCNC1CC(OC2CC(O)(C(O)CO)Cc3c(O)c4c(c(O)c32)C(=O)c2c(OC)cccc2C4=O)OC(C)C1O (stereo unspecified) please.
Key: 87.8

----------
assay protocol: NCI Yeast Anticancer Drug Screen. Data for the mlh1 rad18 strain (AID 175)
conditions used: S. cerevisiae mlh1 rad18 strain growth inhibition; at 50.0 µM (retest, dose inferred, filed as 5.0)
The panel holds about 79,000 compounds, 15% with a hit somewhere; the sample as a whole holds those more often. Calls of active or inactive are those of the source. Rule as the data show it: active = growth inhibition above about 70%; inactive = the rest. Where a SMILES comes first, the peptide text is derived from it. [ ]: non-standard residue; d: D form. ξ: configuration not given here. ξV = CC(C)C(N)C(=O)O
Answer with one of the outcomes 1.0 (active), 0.0 (inactive)

Here are 5 compounds together with their reported answers.
compound | class name
C=CCc1c2c(ccc(=O)c1O)-c1c(cc(OC)c(OC)c1OC)CCC2NC(C)=O (stereo unspecified) | 1.0
OCC(O)C(O)C(O)C(/C=N/Nc1ccccc1)=N/Nc1ccccc1 (stereo unspecified) | 0.0
CC1(C)N(OC2CCCCO2)C(c2ccccc2)C(c2ccccc2)=[N+]1[O-] (stereo unspecified) | 0.0
O=S(c1cc(Cl)cc(Cl)c1O)c1cc(Cl)cc(Cl)c1O | 1.0
NNC(=O)c1ccc(NC(=O)CSc2nc3ccccc3s2)cc1 | 1.0

Exercise: Record lookup: outcome of this test for CC(C)C(NC(=O)CN)C(=O)O (stereo unspecified) (H-Gly-[ξV]-OH) ?
Key: 0.0

Exercise: Now this one: "O=[N+]([O-])Cc1cnc2nncn2n1"
Key: 1.0

Exercise: Next entry: "Nc1nc(N)c2nc3c4ccccc4c4ccccc4c3nc2n1"
Key: 0.0

Exercise: Entry O=C1OC2=C(c3ccccc3)CCCC2C1=O (stereo unspecified) please
Key: 1.0

Exercise: Same thing, different compound: O=C1OC(CN2CCOCC2)CN1/N=C/c1ccc([N+](=O)[O-])o1 (stereo unspecified)
Key: 1.0

Exercise: What would you report for CCCCCCCCC(Sc1n[nH]c(=O)[nH]c1=O)C(=O)OCC (stereo unspecified) ?
Key: 0.0
